# Target or test system: Hexose transporter 1 (Plasmodium falciparum)
# Test: ST_JUDE_LEISH: Cytotoxicity at 2uM final concentration against transgenic Leishmania Mexicana promastigotes LmPfHT that are glucose transport deficient and complemented with the Plasmodium falciparum hexose transporter. Activity is measured by DNA content using SYBR green in vitro
# Format: functional
Kindly supply the reported inhibition values for the records listed here.
Dear colleague, please return just the value in %, with no unit written.

Looking for the measured inhibition of C=CCn1c(SCc2c(C)noc2C)nc2scc(-c3cccs3)c2c1=O , can you help?
0.21

Looking for the measured inhibition of COc1ccc2nccc([C@@H](O)CN3CCC(NC(=O)C(=O)c4c[nH]c5c(C)cccc45)CC3)c2c1 , can you help?
0.43

Looking for the measured inhibition of CCCCSc1ccc2nc(-c3c[nH]c4ccc(C#N)cc34)cn2c1 , can you help?
3.17

Looking for the measured inhibition of O=S(=O)(NCCN1CCCC1)c1ccc(-c2cccc(CNCc3ccccc3)c2)s1 , can you help?
-2.12

Looking for the measured inhibition of COc1ccc(C(=O)NC(c2ccc(Cl)cc2Cl)c2cc(Cl)c3cccnc3c2O)cc1 (stereo not given) , can you help?
3.16
